Each record here notes measured pKi.
Target Entity: UniProtKB O42713
Sequence (O42713 whole entry): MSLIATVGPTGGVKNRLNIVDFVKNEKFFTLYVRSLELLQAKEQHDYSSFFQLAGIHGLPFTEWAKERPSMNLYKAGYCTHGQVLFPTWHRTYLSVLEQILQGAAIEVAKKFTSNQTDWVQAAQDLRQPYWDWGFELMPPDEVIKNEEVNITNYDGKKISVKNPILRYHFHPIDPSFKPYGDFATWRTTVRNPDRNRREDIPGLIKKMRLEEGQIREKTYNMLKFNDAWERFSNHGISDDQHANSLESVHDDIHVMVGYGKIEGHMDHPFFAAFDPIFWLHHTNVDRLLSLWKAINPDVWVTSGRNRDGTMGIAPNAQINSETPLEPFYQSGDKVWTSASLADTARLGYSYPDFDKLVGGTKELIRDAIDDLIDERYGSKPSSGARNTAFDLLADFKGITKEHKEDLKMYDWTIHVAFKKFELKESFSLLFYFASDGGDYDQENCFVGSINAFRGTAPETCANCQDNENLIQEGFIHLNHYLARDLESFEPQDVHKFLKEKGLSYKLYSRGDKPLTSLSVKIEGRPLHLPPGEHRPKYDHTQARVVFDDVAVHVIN
Assay Explanation: Inhibition of monophenolase activity of mushroom tyrosinase using as L-tyrosine substrate by Lineweaver-Burke plot based kinetic assay
The meaning of pKi here: minus log10 of the concentration in molar units.

1. CC(C)=CCc1c(CCCc2ccc(O)cc2O)cc(O)c(O)c1CC=C(C)C [KAZINOL F] ... 6.39
2. C=CC(C)(C)c1cc(CCCc2cc(O)c(O)c(CC3OC3(C)C)c2CC=C(C)C)c(O)cc1O (centres undefined) [KAZINOL S] ... 5.04
3. CC(C)=CCc1cc(CCCc2ccc(O)cc2O)ccc1O [BROUSSONIN C] ... 6.64

Consider the record given below.
Prompt: State pKi on UniProtKB O42713. Entry: C=CC(C)(C)c1cc(CCCc2cc(O)c(O)c(CC=C(C)C)c2CC=C(C)C)c(O)cc1O [KAZINOL C]
Completion: 4.97
